# System: CP256
# Assay summary: qHTS profiling for inhibitors of Plasmodium falciparum proliferation (AID 504749); note: nearly all actives have a fitted effect of over 60% in size
# Reported conditions: P. falciparum in erythrocytes, SYBR Green DNA, 72 h; series mostly up to 28.7 µM
Results filed as inconclusive are left out. Active and inactive are the calls of the source. Calls come from the whole dose curve; as a rule, active = well fitted inhibition curve with a large enough effect; inconclusive = small, poorly fitted or top-dose-only effect; inactive = flat fitted curve, though single readings scatter.
Outcome codes: TRUE = active, FALSE = inactive

molecule="O=c1[nH]c(=O)n(C2CCCO2)cc1F (centres undefined)" group=FALSE
molecule=O=C(O)CO.[NH2-].[NH2-].[Pt+2] group=FALSE
molecule=CC[C@H]1CN2CCc3cc(OC)c(OC)cc3[C@H]2C[C@@H]1C[C@@H]1NCCc2cc(OC)c(OC)cc21 group=TRUE
molecule=COc1cc(C(=O)NS(=O)(=O)c2ccccc2C)ccc1Cc1cn(C)c2ccc(NC(=O)OC3CCCC3)cc12 group=FALSE
